systemUnderTest: T1, human amylin receptor (Amylin 3(a) receptor: human calcitonin receptor co-expressed with RAMP-3) (human, UniProt P30988 25-474; O60896 24-148, limits assumed)
T1 construct: whole, on cells; Used as cell membranes prepared from the Amylin 3(a)/CRE-luc BHK cells (Assay V); the complex is called the human amylin receptor; also called hAmylin-R; hAmylinR
T1 sequence (looked up) 1: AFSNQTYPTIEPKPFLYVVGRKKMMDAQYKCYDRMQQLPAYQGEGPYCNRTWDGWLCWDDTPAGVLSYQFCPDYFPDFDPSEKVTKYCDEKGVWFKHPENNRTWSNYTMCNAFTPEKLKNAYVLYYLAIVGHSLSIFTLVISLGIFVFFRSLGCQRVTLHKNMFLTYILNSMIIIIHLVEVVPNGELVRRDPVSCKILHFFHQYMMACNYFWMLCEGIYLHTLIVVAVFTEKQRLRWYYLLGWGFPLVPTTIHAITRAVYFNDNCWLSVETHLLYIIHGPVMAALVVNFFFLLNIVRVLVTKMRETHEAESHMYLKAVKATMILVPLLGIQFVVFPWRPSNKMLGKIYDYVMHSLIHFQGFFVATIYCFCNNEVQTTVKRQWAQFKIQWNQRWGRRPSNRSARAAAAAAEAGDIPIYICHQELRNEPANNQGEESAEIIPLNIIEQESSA
T1 sequence (looked up) 2: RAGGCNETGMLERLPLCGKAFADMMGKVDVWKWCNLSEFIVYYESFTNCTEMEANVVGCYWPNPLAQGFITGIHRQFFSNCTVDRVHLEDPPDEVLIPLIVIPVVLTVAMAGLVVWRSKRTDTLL
measurementDescription: SPA competition binding, displacement of 125I-rat amylin from membranes of BHK cells with human calcitonin receptor + RAMP-3 (Assay V)
Numbered stars: 1 amine (or outer) side, 2 acyl side, 3 side chain; on linkers, the order of the positions; unused ones are H or OH. Bridge positions count the residues as written; N and C are the ends. Side chains are listed from the residue outwards. Ends that are not written are not given here. * marks the point of attachment. C20 diacid = O=C(O)CCCCCCCCCCCCCCCCCCC(=O)*; γGlu = O=C(O)[C@H](CCC(=O)[*:2])N[*:1]
quantityMeasured: IC50 (nM)

Answered examples (3):
- K([γGlu-γGlu-C20 diacid])CNTATCATQRLAEFLRHSSPNFGAILSSTPVGPETY-NH2 (disulfide 2-7 (inferred), modifications are with respect to human amylin): 0.069
- K([γGlu-C20 diacid])CNTATCATQRLAEFLRHSSPNFGAIPSSTNVGPHTY-NH2 (disulfide 2-7, modifications are with respect to human amylin): 0.179
- K([γGlu-γGlu-C20 diacid])CNTATCATQRLADFLRHSSPNFGAIPSSTNVGPETY-NH2 (disulfide 2-7, modifications are with respect to human amylin): 0.172

[1] K([γGlu-γGlu-C20 diacid])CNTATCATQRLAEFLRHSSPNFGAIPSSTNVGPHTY-NH2 (disulfide 2-7 (inferred), modifications are with respect to human amylin)
[2] K([γGlu-γGlu-C20 diacid])CNTATCATQRLAEFLRHSSPNFGAIPSSTNVGPETY-NH2 (disulfide 2-7 (inferred), modifications are with respect to human amylin)
Hi there! Just curious which has the higher IC50 between 1 and 2 . Indicate your choice by writing its label.
1
(1: 0.377 nM, 2: 0.121 nM)
